Each recorded value in this set is attributed to the DeepSol protein solubility set.

experiment: soluble on expression in E. coli; label from the status in PepcDB or PDB records
readout label: soluble on expression in E. coli

Some solved entries appear below for comparison.
[
  {
    "entry sequence": "EVVVRRLSDPVELEEAVEVHARAWGSRDYREVVAPHILRALVDNGGLVLGAFVGGRMVGASYGWFVGCGEGRYFYSHATGVEEGYKYRGVGFALKARQREEVLREGVSLAKWTFDPLQSLNTRFNLAKLGAVYRVYKVNYYGEMTDEINRGLGSDRVVAEWWL",
    "soluble on expression in E. coli": "not soluble"
  },
  {
    "entry sequence": "MGSDKIHHHHHHVLINQQYTRHGPDYRFGEQVTFLDVKQTFGFSHVRVGRWVTRDESRLAADLVFDSLADLAFILKLPPLKLGLRETVSLAFGHGGQKGVQAHYAPAARELALAKNAGAGALAHEFWHAFDHYIAAKSFKSSSKRFQCASDLWLSDLPIIEHPLNARLSEIFKVTFLSGNGDEPHDYVRRAIALDKKHGMQYFARPTEMMARAFEACIESYDDISNPYLVSGTRFSAMAKEGAYPDEAHRKVIFQALINYFEPLGMALSKHPLG",
    "soluble on expression in E. coli": "not soluble"
  },
  {
    "entry sequence": "MGSDKIHHHHHHVDIQALKKVSELDVFSLLVFKLIYETGFANFAAKELAVSAPKISRCLTSLRAIFNDELFFRRQQGLKPTPLAERLYQPVCQLCDMVSQIERVADDRLNHHQTPILHIAVSPSIITSVAIALSKLPRDVIGKVKLHSWQADTEELIYNGELDFGIGFETQDTHGLEAYPIANVTSLCVVGNTNHLFWAGAEQIKLEDIIQHPIVYLRCKGFNNRIDPLELYCQTHGLLLEDIECARKLEDWYWHILTMDSLAITICNEGSFAQQIPQLRVERLPQSEFTKLNSVMAMPSYCLIERAEHYRRYSLNVKEMIIDIIKSLLV",
    "soluble on expression in E. coli": "not soluble"
  },
  {
    "entry sequence": "MTEPFIVRRETQIAAPRATVFAYLTDPEKILSWMGSDATTEPHPGGLYLLKGIGPRGAAARGAFREVVPVHRLAYTFGWEGGQEVPPGSSLIEIDLIERDGGTLLRMTHSGLPTEEQAAAHAKGWAHYLERLTTAAAGNDPGPDNGVSTKSLEHHHHHH",
    "soluble on expression in E. coli": "soluble"
  },
  {
    "entry sequence": "MKPKTRLYYAERLEPVLAWLAARPDADADLHRLAELACLSPYYFHRVYRALLGETVHATVQRMRLARASVALAQGKGSLRQVADRAGYASEAAFSRAFSAQYGLPPGRYRAKRSSPFNPEELRMYPLTMEDFPGLSLAILAHQGDYQEIGNTFDRLALLAAIQDLVRDGMQPPPRYIGVYYDDPAQVARDALRSRAGVSLPPGTAAPAPFEPLDIPAMRCAVLEYTGPYSEIEAPYNWLFSQWLPASGQEPGDFPMFEEYLNDPKTTPAAQLKTRIYLPLA",
    "soluble on expression in E. coli": "not soluble"
  },
  {
    "entry sequence": "MNGSKENAMKIDLNSDMGEGFGPYRLCDDEAMMKIVSSANIACGFHGGDPDTMARMVRLAKANGVGIGAHPGLPDRAGFGRREIPFQPDELRQQMLYQLGALMAIAGAEGMKVGHFSFHAAMGNMVNRDPVLADLMMNAIATVDPRLVVFVTPESEIERAAKRAGLKTLALFLADRAYDAEGRLVARGLPGALVKDETSVRARVRRFLTHGQVEAIDGTIIAMPAHSILVHSDTPGSLELARIIRSEIEASGATLAPAAEHAALEHHHHHH",
    "soluble on expression in E. coli": "soluble"
  }
]

// soluble on expression in E. coli lookup, key: GPGSMTEYKKLCAILAQLREEVTSLSCAFEGGEGQDTVALHSLSTSIQKLVTNAQPRLLKILRKATETDPNRQIYNEAMCAAIKQLFDDFCELLSCLFGVPMEEMVLSEGKINFEDSPSISWTEDVHNNYLLHLAQTEAWKKRIATNIADLVLFEEETRTVYFAEERKARETLLQIKRNEKTNILHMLKEREAAKWEAEVRRRNDEHKGLMNASSFYGVQNIATVLLRIPEPFRKLLAGNMAQLVRALRTTPEDPNIRRIRCNNRRVMMDYSHVVFCGECETCRILVAAAEILWYIMGYRVEYSTAPTSSLRTVIENNPPILLPCGRYASEHAIAVIGFEEYSERFFTLHEPDPMQDSDEWMVWYATLEALLARLEDCLV
not soluble

Which measured soluble on expression in E. coli value corresponds to MADAEGDPLQAFWTQVVRLRDLLKFDFYFADSAAFHQNVAEEMSWHADWEQQVRAGRDGIETLMRAKRPLLADAMLRPYFEAYTIVADVLRDAPAEIAEKDLTKLALGVGQQYVAQGRVRNNESVSALLFATARQVAADQGLLEHGPDLMEQRRAFRDELRGILRDLDTVDRYARELFAARERERRTKRDEAVLEHHHHHH ?
not soluble

Given MRKLWVAFFASLVLAMPSWVSARSHAGGGADVHLPVGHMWKHEGLDEQKWMEMVQKYTPEQEEEWKKVLDERNALRQQLNDENVKQAIKEKCKKMKKEREAALDRLIDQLVDKKITKEQFKKEWKQLHKKKQWMTKEEKQQLHLLHEQTRQAMENNDQEAMKKLLPQWLDHMKKKNERLAKWLQEVKQG , state its recorded soluble on expression in E. coli.
not soluble

Find the recorded soluble on expression in E. coli belonging to MGSDKIHHHHHHMRIAQVAPLWERVPPPAYGGIELVVGLLTDELVRRGHEVTLFASGDSISLANLVSVHPRALRLDSSVKEYGIYEMLQLSTVYERADEFDIIHSHMGCASLPYTKLVKTPTVHTLHGIFTPDNEKMFRYAKTEPFVSISDAQRDLRLGLNYVGTVYNGIDVNSYKFYPQPDEPPYLAFLGRISPEKGTHLAIEIAKKSGWHLKIAGKVDVVDVEYFEKEIKPLIDGKQIEYLGEADHTQKNVLMGGAVATLFPITWREPFGLVMVESMASGTPVIAMNLGSTTEVIAHGKTGFLCSNVEECVSAIAKVADLDRYTCREYVQNRFSLQAMTEGYEEVYRQILQQRFANNGHHRSTVALSKV and report it.
not soluble

Give its soluble on expression in E. coli value. Item: MGSDKIHHHHHHMINQVYQLVSPRQFEATFKTIDLHNHNSKVIVRPLYLSICAADLRYYCGNRDSKILSKKLPMSLIHESVGEIVYDSEHRLKNGTKVVMIPNTPSKSHNIIAENYLTSSHFKSSGYDGFMQDYIVMKPDRVVTLPQEIDLSVASYTELVTVSVHAIDRFQSKAIPQFESLGIWGDGNLGYITAVLLKKLYPTTKIIVFGKTLYKLSRFSFVDEIIQIDNIPQHIKIDHAFECVGGKGSQQAIEQIINIINPEGSIALLGVSELPIQVNTRMVLEKGLTIIGSSRSGLKDFEKTIELYRKYPEVLNQLALLKGKEFEINTIEDLITAFEYDISNAWGKTVLKWNI
not soluble

Given the sequence MSKIARKDVERLIELVGGPDNIASVSHCLTRLRFVLNDTDKADTKQLEALRMVKGCFTNAGQFQVVIGTEVDEVYKVLIELSGKSEASKDESKNAARQNMNIVERGISHLAE , what is its reported soluble on expression in E. coli?
not soluble

---

assay: soluble on expression in E. coli; label from the status in PepcDB or PDB records
readout label: soluble on expression in E. coli

Previously resolved entries follow.
[
  {
    "entry sequence": "KRSKVLSQASKNAEQFEDKFWSGTDLSQLYQKVKGRKDEIAGTEEIFFAGFTEFARLRKSNANSPAYIMEGTGRAMRVAVAREVDELETS",
    "soluble on expression in E. coli": "not soluble"
  },
  {
    "entry sequence": "LSSVSSIPDYAEQLRTADLRVTRPRVAVLEAVNAHPHADTETIFGAVRFALPDVSRQAVYDVLHALTAAGLVRKIQPSGSVARYESRVGDNHHHIVCRSCGVIADVDCAVGEAPCLTASDHNGFLLDEAEVIYWGLCPDCSISDTSRSHP",
    "soluble on expression in E. coli": "soluble"
  },
  {
    "entry sequence": "MCLVDFGLRFNHKGRHYFKAANGEDIALSLSIGAAMFNGHPDYERLIQIADEALYIAKRRGRNRVELCKASL",
    "soluble on expression in E. coli": "not soluble"
  },
  {
    "entry sequence": "VMPLILLPAVDVVEGRAVRLVQGKAGSQTEYGSAVDAALGWQRDGAEWIHLVDLDAAFGRGSNHELLAEVVGKLDVQVELSGGIRDDESLAAALATGCARVNVGTAALENPQWCARVIGEHGDQVAVGLDVQIIDGEHRLRGRGWETDGGDLWDVLERLDSEGCSRFVVTDITKDGTLGGPNLDLLAGVADRTDAPVIASGGVSSLDDLRAIATLTHRGVEGAIVGKALYARRFTLPQALAAVRD",
    "soluble on expression in E. coli": "soluble"
  }
]

Field: next sequence
// query soluble on expression in E. coli value for entry MAHHHHHHMAFAGSNDVLKVQKMLQVLVEKRSDKKVNMDGSAKPTDQPHHPAPCGNAVDGKAPQGADAKGPLLDGKRANPTLGSSKSAKTGPAD
not soluble
